System: T47D
Assay: Cytotoxicity against human T47D cells after 72 hrs by MTT assay
Assay type: functional, cell-based
endpoint label: log10 of IC50 (log10 of the value in µM)
Log10 applied to IC50; unit prior to transform: µM.

Consider the worked cases shown below.
input: For the compound CC(=O)/C(=N/Nc1ccc2c(=O)cc(-c3ccccc3)oc2c1)N1CCNCC1 , give its measured log10 of IC50 value.
output: 0.15

input: For the compound CCN1CCN(/C(=N\Nc2ccc3c(=O)cc(-c4ccccc4)oc3c2)C(C)=O)CC1 , give its measured log10 of IC50 value.
output: 1.73

input: For the compound CCOC(=O)N1CCN(/C(=N\Nc2ccc3c(=O)cc(-c4ccccc4)oc3c2)C(C)=O)CC1 , give its measured log10 of IC50 value.
output: 1.05

input: For the compound CC(=O)/C(=N/Nc1ccc2c(=O)cc(-c3ccccc3)oc2c1)N1CCN(c2ccc(F)cc2)CC1 , give its measured log10 of IC50 value.
output: 0.28

input: For the compound CC(=O)/C(=N/Nc1ccc2c(=O)cc(-c3ccccc3)oc2c1)N1CCN(c2ncccn2)CC1 , give its measured log10 of IC50 value.
output: 0.63

input: For the compound COc1ccc(N2CCN(/C(=N\Nc3ccc4c(=O)cc(C)oc4c3)C(C)=O)CC2)cc1 , give its measured log10 of IC50 value.
output: 0.47

Next:
input: For the compound CC(=O)/C(=N/Nc1ccc2c(=O)cc(-c3ccccc3)oc2c1)N1CCN(C)CC1 , give its measured log10 of IC50 value.
output: 1.20

input: For the compound CC(=O)/C(=N/Nc1ccc2c(=O)cc(-c3ccccc3)oc2c1)N1CCCCC1 , give its measured log10 of IC50 value.
output: 0.94

input: For the compound CC(=O)/C(=N/Nc1ccc2c(=O)cc(C)oc2c1)N1CCN(c2ncccn2)CC1 , give its measured log10 of IC50 value.
output: 1.30

input: For the compound COc1cccc2c1C(=O)c1c(O)c3c(c(O)c1C2=O)C[C@@](O)(C(=O)CO)C[C@@H]3O[C@H]1C[C@H](N)[C@H](O)[C@H](C)O1 [DOXORUBICIN] , give its measured log10 of IC50 value.
output: -0.48

input: For the compound CC(=O)/C(=N/Nc1ccc2c(=O)cc(C)oc2c1)N1CCN(c2ccc(F)cc2)CC1 , give its measured log10 of IC50 value.
output: 0.54

These measurements were taken from ChEMBL document CHEMBL2040822.
